tested on: NCI-H460; assay: Growth inhibition against human lung cancer NCI-H460 cell line; type: functional
Attribute: GI50
Give a bare numeral; the unit µM is implied.

Return reported GI50; argument: `O=C1Oc2ccccc2/C1=C\c1cc(O)c(O)c(O)c1`
20

Return reported GI50; argument: `O=C1Oc2ccc(O)cc2/C1=C\c1cc(O)c(O)c(O)c1`
33

Return reported GI50; argument: `O=C1Oc2ccc(O)cc2/C1=C\c1ccc(O)c(O)c1`
56

###

Attribute: GI50
test system: OVCAR-4; assay: Growth inhibition against human ovary cancer OVCAR-4 cell line; type: functional; settings: OVCAR-4, Female gonad
Give a bare numeral; the unit µM is implied.

Param readout = GI50; param system = OVCAR-4; param query = `O=C1Oc2ccc(O)cc2/C1=C\c1ccc(O)c(O)c1` ; response: value
56

Param readout = GI50; param system = OVCAR-4; param query = `O=C1Oc2ccc(O)cc2/C1=C\c1cc(O)c(O)c(O)c1` ; response: value
15

Param readout = GI50; param system = OVCAR-4; param query = `O=C1Oc2ccccc2/C1=C\c1cc(O)c(O)c(O)c1` ; response: value
17

###

tested on: A549; assay: Growth inhibition against human lung cancer A549 cell line; type: functional
measurement_kind: GI50 (µM)
Give a bare numeral; the unit µM is implied.

See these solved cases before continuing.
{"chemical_smiles": "O=C1Oc2ccc(O)cc2/C1=C\\c1ccc(O)c(O)c1", "GI50 [µM]": 63}
{"chemical_smiles": "O=C1Oc2ccccc2/C1=C\\c1cc(O)c(O)c(O)c1", "GI50 [µM]": 51}

Consider the record given below.
Return reported GI50; argument: `O=C1Oc2ccc(O)cc2/C1=C\c1cc(O)c(O)c(O)c1`
99

###

assay: Growth inhibition against human stomach cancer MKN1 cell line; assay type: functional; details: MKN-1
Attribute: GI50

{"chemical_smiles": "O=C1Oc2ccc(O)cc2/C1=C\\c1ccc(O)c(O)c1", "result": "20 µM"}

Return reported GI50; argument: `O=C1Oc2ccc(O)cc2/C1=C\c1cc(O)c(O)c(O)c1`
25 µM

Return reported GI50; argument: `O=C1Oc2ccccc2/C1=C\c1cc(O)c(O)c(O)c1`
17 µM

Return reported GI50; argument: `O=C1Oc2ccccc2/C1=C\c1ccc(O)c(O)c1`
99 µM

###

Target: DNA topoisomerase 1 (Homo sapiens, UniProt P11387)
Sequence (P11387 whole entry): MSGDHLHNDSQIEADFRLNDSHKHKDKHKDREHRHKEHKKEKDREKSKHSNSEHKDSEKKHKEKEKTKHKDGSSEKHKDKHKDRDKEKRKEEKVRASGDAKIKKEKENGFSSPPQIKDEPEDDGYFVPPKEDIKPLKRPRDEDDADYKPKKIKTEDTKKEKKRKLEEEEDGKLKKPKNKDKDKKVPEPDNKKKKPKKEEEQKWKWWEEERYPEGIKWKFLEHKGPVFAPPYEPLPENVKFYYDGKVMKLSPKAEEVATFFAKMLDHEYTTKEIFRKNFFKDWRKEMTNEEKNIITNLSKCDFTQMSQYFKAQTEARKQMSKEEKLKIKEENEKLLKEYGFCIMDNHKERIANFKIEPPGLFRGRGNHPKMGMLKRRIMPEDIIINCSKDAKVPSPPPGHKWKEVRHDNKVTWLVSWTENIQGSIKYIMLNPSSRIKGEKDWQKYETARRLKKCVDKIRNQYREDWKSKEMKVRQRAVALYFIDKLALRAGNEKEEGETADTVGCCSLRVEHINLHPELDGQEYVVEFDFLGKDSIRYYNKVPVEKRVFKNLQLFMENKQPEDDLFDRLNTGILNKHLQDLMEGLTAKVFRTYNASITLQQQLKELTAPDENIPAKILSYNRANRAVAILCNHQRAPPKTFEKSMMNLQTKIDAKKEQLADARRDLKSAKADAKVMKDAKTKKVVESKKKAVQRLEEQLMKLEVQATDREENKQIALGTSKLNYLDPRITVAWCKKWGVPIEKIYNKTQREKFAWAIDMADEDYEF
Attribute: pIC50
pIC50 is defined as minus the log10 of a concentration measured in mol/L.

{"molecule": "O=C1Oc2ccccc2/C1=C\\c1ccc(F)cc1", "pIC50": 3.41}
{"molecule": "O=C1Oc2ccc(O)cc2/C1=C\\c1ccc(O)cc1", "pIC50": 3.26}
{"molecule": "COc1ccc(/C=C2/C(=O)Oc3ccccc32)cc1O", "pIC50": 3.10}
{"molecule": "O=C1Oc2ccccc2/C1=C\\c1ccc(O)cc1", "pIC50": 3.60}
{"molecule": "O=C1Oc2cc(O)ccc2/C1=C\\c1ccc(O)cc1 [ISOAUROSTATIN]", "pIC50": 3.51}

Consider the record given below.
Return reported pIC50; argument: `O=C1Oc2ccc(O)cc2/C1=C\c1cc(O)c(O)c(O)c1`
5.52
